Collected GI50 values appear next to each entry.
tested on: HOP-62; assay: NCI tumour cell line growth inhibition, 48 h
The source made the active and inactive calls. Cut-off read from the data, not from the text of the source: active = GI50 up to about 1.1 µM and inactive = higher.
measurement_kind: GI50

>>> recorded_value("O=C(CCN1CCC(CCO)CC1)Nc1ccc2c(c1)C(=O)c1ccc(NC(=O)CCN3CCC(CCO)CC3)cc1C2=O")
"17.3 µM (inactive)"
>>> recorded_value("C/C(CCn1[nH]c(=O)ccc1=O)=N\\N=C(N)N")
"> 100 µM (inactive)"
>>> recorded_value("Cc1cc(C)nc(NS(=O)(=O)c2ccc(Nc3c4ccccc4nc4c(C(=O)N5CCN(CCOS(C)(=O)=O)CC5)cccc34)cc2)n1")
"> 100 µM (inactive)"
>>> recorded_value("CSCCCNC(=O)c1csc(-c2csc(CCNC(=O)CNC(=O)OC(C)(C)C)n2)n1")
"> 100 µM (inactive)"
>>> recorded_value("O=C(O)CNc1ncc2c(n1)-c1ccccc1OC2")
"> 100 µM (inactive)"
